Source: the supplement of paper PMC6555819

# System: RARa:RXR (NR concentration 270 nM, RXRa partner concentration 90 nM)
# EXPERIMENT: PBM binding z-score (relative to random genomic background probes); higher = stronger binding; sequences stand for … in GC…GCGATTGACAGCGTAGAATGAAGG
Reported PBM binding z-score values follow for various sequences
Give the figure only, with no unit attached.

Below are worked cases with known answers.
>  <BIOPOLYMER SEQUENCE>
TCATATAGGTGATACAGGTGAAAGTCGGCATCTA

>  <PBM binding z-score>
0.978

$$$$
>  <BIOPOLYMER SEQUENCE>
CAAACTAGGTCACCGGAAGCTCAAAGTCCGCATG

>  <PBM binding z-score>
3.19

$$$$

Challenge: Given TGTCAAAGATCAAAGGTAACGTAAGTATCCACAC , state its recorded PBM binding z-score.
Response given: 2.22

Challenge: Given CGAACTAGGTCACCGGAAGGTCAAAGTCCGCATG , state its recorded PBM binding z-score.
Response given: 7.52

Challenge: Given TCTAGTTGGTCAAAGGACACACACTCGAAATGCG , state its recorded PBM binding z-score.
Response given: 1.1

Challenge: Given TGTCAAAGTTCCAAGGTAACGTAAGTATCCACAC , state its recorded PBM binding z-score.
Response given: 0.56

Challenge: Given CGAACGAGGGCTTGAGTTGATAGCAAATGCCGAT , state its recorded PBM binding z-score.
Response given: -0.285
